Provenance of the data: ChEMBL document CHEMBL4765313

assay: Solubility of compound at pH 7.4 at 1 to 100 uM; type: physicochemical; details: buffer, pH 7.4, 100 µM; dose 1-100 µM

# smiles_text, solubility
rows = [
    ("O=C(CN1CCN(C(=O)c2ccccc2F)CC1)N1CCN(CCCc2c[nH]c3ccccc23)CC1", "Soluble"),
    ("COc1ccc2[nH]cc(CCCN3CCN(C(=O)CN4CCN(C(=O)c5cccc(F)c5)CC4)CC3)c2c1", "Soluble"),
    ("O=C(CN1CCN(C(=O)c2ccccc2)CC1)N1CCN(CCCc2c[nH]c3ccccc23)CC1", "Soluble"),
    ("O=C(CN1CCN(C(=O)c2cccc(Cl)c2)CC1)N1CCN(CCCc2c[nH]c3ccccc23)CC1", "Soluble"),
    ("O=C(CN1CCN(C(=O)c2cccc(Cl)c2)CC1)N1CCN(CCCc2c[nH]c3ccc(F)cc23)CC1", "Soluble"),
    ("COc1ccc2[nH]cc(CCCN3CCN(C(=O)CN4CCN(C(=O)c5ccccc5Br)CC4)CC3)c2c1", "Soluble"),
    ("COc1ccc(C(=O)N2CCN(CC(=O)N3CCN(CCCc4c[nH]c5ccc(F)cc45)CC3)CC2)cc1", "Soluble"),
    ("COc1ccc2[nH]cc(CCCN3CCN(C(=O)CN4CCN(C(=O)c5ccc(F)cc5)CC4)CC3)c2c1", "Soluble"),
    ("O=C(CN1CCN(C(=O)c2ccc(F)cc2)CC1)N1CCN(CCCc2c[nH]c3ccccc23)CC1", "Soluble"),
    ("O=C(CN1CCN(C(=O)c2ccc(Br)cc2)CC1)N1CCN(CCCc2c[nH]c3ccccc23)CC1", "Soluble"),
    ("O=C(CN1CCN(C(=O)c2cccc(Br)c2)CC1)N1CCN(CCCc2c[nH]c3ccc(F)cc23)CC1", "Soluble"),
    ("COc1ccc2[nH]cc(CCCN3CCN(C(=O)CN4CCN(C(=O)c5ccc(Cl)cc5)CC4)CC3)c2c1", "Soluble"),
    ("O=C(CN1CCN(C(=O)c2ccc(F)cc2)CC1)N1CCN(CCCc2c[nH]c3ccc(F)cc23)CC1", "Soluble"),
    ("O=C(CN1CCN(C(=O)c2ccc(Br)cc2)CC1)N1CCN(CCCc2c[nH]c3ccc(F)cc23)CC1", "Soluble"),
    ("O=C(CN1CCN(C(=O)c2cccc(F)c2)CC1)N1CCN(CCCc2c[nH]c3ccc(F)cc23)CC1", "Soluble"),
    ("COc1ccc2[nH]cc(CCCN3CCN(C(=O)CN4CCN(C(=O)c5cccc(Cl)c5)CC4)CC3)c2c1", "Soluble"),
]
